- System: HOP-62
- experimental.protocol: NCI tumour cell line growth inhibition, 48 h
Activity calls are given as the source filed them. Cut-off read from the data, not from the text of the source: active = GI50 up to about 1.1 µM and inactive = higher.
measured.parameter: GI50

>>> experimental_value("Cc1ccc(SC2C(C)(C)N(C(C)C)P2(=O)N(C(C)C)C(C)C)cc1 (stereo unspecified)")
"> 100 µM (inactive)"
>>> experimental_value("O=C1OI(C#Cc2ccccc2)c2ccccc21")
"6.41 µM (inactive)"
>>> experimental_value("CNC(=S)Nc1ccc(OC)c2ccccc12")
"> 10 µM (inactive)"
>>> experimental_value("N#CC1(c2ccccc2)CCN(C2(c3ccccc3)CCCCC2)CC1")
"> 100 µM (inactive)"
>>> experimental_value("O=C1C(Cl)=C(N2CCN(c3ccccn3)CC2)C(=O)c2c(O)ccc(O)c21")
"4.67 µM (inactive)"
>>> experimental_value("c1ccc2c(c1)CCc1[nH]c3c(c1-2)-c1ccccc1CC3")
"15.1 µM (inactive)"
